- PROTOCOL NOTES: qHTS for Inhibitors of TGF-b: Cytotox Counterscreen
- COND: HepG2 CAGA-GFP viability, ATP luminescence, 18 h; series mostly up to 46.1 µM
Among all 410,000 compounds or so, about 3,100 (0.76%) were called active. The call rests on the fitted dose curve; in most records, active means well fitted cell-killing curve with a large enough effect; inactive means no such curve, though single readings can be large or run the other way. Shown is part of a subset that was picked to be rich in actives.
Field 'call' accepts active, inactive

Worked cases, answers included:
N#C/C(=C\c1ccccc1F)c1nc2ccccc2c(=O)[nH]1    inactive
CSc1nc(Nc2ccc(F)cc2)cc(-c2ccccc2)n1    inactive
CCCOc1cccc(C(=O)Nc2cccc(NC(=O)c3ccc(C(C)(C)C)cc3)c2)c1    inactive
COc1cc(OC)c(N(C)C(=O)c2cc3c(=O)oc4ccccc4c3s2)cc1Cl    inactive
COc1ccc(CCN2C(=O)c3[nH]nc(-c4ccccc4O)c3C2c2ccc(C)cc2)cc1OC (centres undefined)    inactive
O=C1O/C(=C\c2ccc(O)cc2)C(O)=C1c1ccc(O)cc1    inactive
Cc1ccc(S(=O)(=O)/N=C2\C=C(NS(=O)(=O)c3ccc(C)cc3)C(=O)c3ccccc32)cc1    inactive
COc1cccc(Cn2c(SCc3ccc(C(=O)N4CCC(C)CC4)cc3)nc3ccncc32)c1    inactive

### Prompt Called result for CCOC(=O)C1CCCN(C(=O)c2ccc3c(c2)sc2nc(-c4ccc(CC)cc4)cn23)C1 (centres undefined)
### Response inactive

====

- PROTOCOL NOTES: qHTS for Inhibitors of TGF-b: Cytotox Counterscreen
- COND: HepG2 CAGA-GFP viability, ATP luminescence, 18 h; series mostly up to 46.1 µM
About 3,100 (0.76%) of roughly 410,000 compounds were called active. The call rests on the fitted dose curve; in most records, active means well fitted cell-killing curve with a large enough effect; inactive means no such curve, though single readings can be large or run the other way. The full list was thinned out, with actives kept by preference.
Permitted responses: yes (1) = active, no (0) = inactive

### Prompt How was `OCc1cnc(SCc2ccc(F)cc2)n1Cc1ccc(F)cc1` classified in this test?
### Response no (0)

### Prompt Fill in: this test's call for `CCCN(CCC)CCCNC(=O)Cn1ncc2c3ccccc3n(Cc3ccccc3)c2c1=O` is ___
### Response no (0)

### Prompt Record lookup: outcome of this test for O=C(NC1(C(F)(F)F)N=C(c2ccccc2)N(C2CCCCC2)C1=O)c1ccccc1F (centres undefined) ?
### Response no (0)

### Prompt Called result for O=C1NC(Nc2nc3ccccc3s2)(C(F)(F)F)C(=O)N1C1CCCCC1 (centres undefined)
### Response yes (1)

====

- PROTOCOL NOTES: qHTS for Inhibitors of TGF-b: Cytotox Counterscreen
- COND: HepG2 CAGA-GFP viability, ATP luminescence, 18 h; series mostly up to 46.1 µM
The whole screen tested about 410,000 compounds, of which about 3,100 (0.76%) were called active. Calls follow the shape of the dose curve; as a rule, active = well fitted cell-killing curve with a large enough effect; inactive = no such curve, though single readings can be large or run the other way. The full list was thinned out, with actives kept by preference.
# output must be one of active, inactive

### Prompt Can you look up the reported call for `CCOc1cccc(C(=O)Nc2nnc(S(=O)(=O)N(C)c3ccc(C)cc3)s2)c1` for me?
### Response inactive

====

- PROTOCOL NOTES: qHTS for Inhibitors of TGF-b: Cytotox Counterscreen
- COND: HepG2 CAGA-GFP viability, ATP luminescence, 18 h; series mostly up to 46.1 µM
Out of some 410,000 compounds screened, about 3,100 (0.76%) were called active. Calls come from the whole dose curve; as a rule, active = well fitted cell-killing curve with a large enough effect; inactive = no such curve, though single readings can be large or run the other way. Shown is part of a subset that was picked to be rich in actives.
Permitted responses: active, inactive

Here's what some known entries look like.
COc1ccc(CN2CCCC(CNC(=O)c3ccc(F)cc3)C2)cc1OC (configuration not stated)    inactive
COc1ccc(C2CC(c3cccc(OC)c3)=NN2c2ccc(S(N)(=O)=O)cc2)cc1 (configuration not stated)    inactive
COc1ccc(C(CCN(Cc2ccc(OC)c(OC)c2)C(=O)CCl)c2ccccc2)cc1 (configuration not stated)    active
NNC(=O)c1cnn(-c2ccccc2)c1C(F)(F)F    inactive
O=C1Nc2cc(C(=O)N3CCC(N4CCCCC4)CC3)ccc2S/C1=C\c1ccccc1    inactive

### Prompt Call for entry `CCNC(=O)c1cnn(-c2ccccc2)c1-c1ccccc1` :
### Response inactive

### Prompt Hey, what did the test say about `O=C(Cn1c(=O)n(-c2ccc(F)cc2)c(=O)c2sccc21)Nc1cccc(C(F)(F)F)c1` ?
### Response inactive

====

- PROTOCOL NOTES: qHTS for Inhibitors of TGF-b: Cytotox Counterscreen
- COND: HepG2 CAGA-GFP viability, ATP luminescence, 18 h; series mostly up to 46.1 µM
Among all 410,000 compounds or so, about 3,100 (0.76%) were called active. The call rests on the fitted dose curve; in most records, active means well fitted cell-killing curve with a large enough effect; inactive means no such curve, though single readings can be large or run the other way. This excerpt belongs to a sample that is enriched for actives.
The categories you may choose from are active, inactive

COc1ccc(-c2cn3nc(N4CCC(C(=O)Nc5cccc(C)c5C)CC4)sc3n2)cc1    inactive

### Prompt // outcome(item) with item = `Cc1cccc(CSc2nc3ccncc3n2Cc2ccc(C(=O)O)cc2)c1`
### Response inactive

### Prompt Look up the recorded call for `O=C(CSc1nnc(CN2CCCC2)n1-c1ccc(F)cc1)c1ccc2c(c1)OCO2` in this test.
### Response inactive

### Prompt Which result was noted for this molecule in the test: `O=C(CSc1nc2ccc(Nc3nc(N4CCOCC4)nc(N4CCOCC4)n3)cc2s1)NCc1ccco1`
### Response inactive

### Prompt I'd appreciate the recorded outcome for `CC(C)CC[n+]1ccn(C2=C([O-])c3ccccc3C(=O)/C2=N\S(=O)(=O)c2ccccc2)c1` from this test.
### Response active

### Prompt Outcome logged for `CSc1nc(-c2ccccc2)nc(C(Cl)Cl)n1` in this assay:
### Response active

### Prompt Called result for `O=C(CSc1nc(Nc2ccccc2)nc(N2CCOCC2)n1)Nc1cc(Cl)ccc1O`
### Response active

### Prompt State the result this test recorded for Cc1cccnc1C(NC(=O)C1CCN(Cc2ccc(Cl)c(Cl)c2)CC1)c1ccc(Cl)cc1 (stereo not given) .
### Response inactive

### Prompt // param item: `Cc1ccc(CCNC(=O)Cn2c(-c3cccs3)cc3cc(F)ccc32)cc1` ; yields the recorded call
### Response inactive

### Prompt Could you kindly confirm the outcome this assay logged for `CCCn1c(SCC(=O)c2ccc3c(c2)OCCO3)nnc1C(C)C` ?
### Response active

### Prompt Hi, do you know how CCCOc1ccc(C2c3c(-c4ccccc4O)n[nH]c3C(=O)N2Cc2cccnc2)cc1 (stereo not given) came out in this test?
### Response inactive

### Prompt // outcome(item) with item = `CCOC(=O)c1c(C)oc2nc(C)nc(N(CC(C)C)CC(C)C)c12`
### Response inactive

### Prompt What is the recorded call for this molecule in the test? `Nc1nc(N)c(N=O)c(N)n1`
### Response inactive

### Prompt Answer briefly: the call reported for `Cc1cc[n+](C2CCCCC2)cc1` in this assay.
### Response inactive

### Prompt Hi team, can someone confirm the assay call for `COc1c(Cl)cc(Cl)cc1C(=O)Nc1cccc2cccnc12` ?
### Response inactive

====

- PROTOCOL NOTES: qHTS for Inhibitors of TGF-b: Cytotox Counterscreen
- COND: HepG2 CAGA-GFP viability, ATP luminescence, 18 h; series mostly up to 46.1 µM
In all, about 410,000 compounds went through this assay and about 3,100 (0.76%) were called active. The call rests on the fitted dose curve; in most records, active means well fitted cell-killing curve with a large enough effect; inactive means no such curve, though single readings can be large or run the other way. The sample holds actives, similar compounds and a random draw of the others, so the mix is not that of the screen.
Valid outcomes are listed here; reply with one: True for active, False for inactive

Solved cases (3 shown):
O=C1C[C@H]2C=CCc3cccc(c32)CN1Cc1ccccc1    False
COc1ccc(OC)c(CNC(=O)c2c3c(nc4ccccc24)C(=O)N(C2CCCCC2)C3)c1    False
Cc1nn(C)c2c1c(C(F)(F)F)cc(=O)n2C(C)C(=O)NCc1ccc(Cl)cc1 (stereo not drawn)    False

### Prompt Which outcome did this test record for the compound `Cc1cccc(NC(=O)Nc2ccc3c(c2)OCO3)n1` ?
### Response True

### Prompt Assay result, entry `C/C=C/NNC(=O)Cc1ccc(OC)cc1` — outcome?
### Response False

### Prompt Per the assay record, what outcome was assigned to `Cc1ccc(OCCn2c(CNc3ccccc3C)nc3ccccc32)cc1` ?
### Response False

### Prompt # outcome recorded in this test, key = `COc1ccc(Cn2c(=O)sc3ccccc32)cc1OC`
### Response False

### Prompt Called result for `CCOCCCNC(=O)c1c(NC(=O)c2nc(SC)ncc2Cl)sc2c1CCCC2`
### Response False

### Prompt Hi, sorry to bother you, what did the test record for OC(CBr)C[n+]1cccc2cc(Br)ccc21 (stereo not drawn) ?
### Response False

### Prompt Would you mind telling me which call this test gave COCC(C)NC(=O)COc1nncc2ccccc12 (stereo not drawn) ?
### Response False

### Prompt Assay outcome for `CC(C)c1ccc(S(=O)(=O)Nc2ccc(O)c(Sc3nc4ccccc4s3)c2)cc1` : what was it?
### Response False

### Prompt Test call, this compound: OC(CN=c1sc2ccccc2n1CC(O)COc1ccccc1)COc1ccccc1 (stereo not drawn)
### Response True

### Prompt Which outcome was assigned to `CC(C)(C)n1ncc2c(=O)n(Cc3ccc(C(=O)c4ccccc4)cc3)cnc21` in this test?
### Response False

### Prompt Give the logged outcome of this assay for the following compound: `c1ccc2c(CCN3CCNC[C@H]3Cc3cccc4ccccc34)cccc2c1`
### Response True
